Catalogue of compounds with associated MIC50
test system: Ps. aeruginosa; assay: E-test (Epsilometer-test), in vitro antibacterial effectiveness; format: cell-based; conditions: Pseudomonas aeruginosa; 8 ocular isolates of Ps. aeruginosa
measuredEndpoint: MIC50

* O=C(O)c1cn(C2CC2)c2cc(N3CCNCC3)c(F)cc2c1=O | 0.125 µg/mL
* CC1COc2c(N3CCN(C)CC3)c(F)cc3c(=O)c(C(=O)O)cn1c23 (centres unmarked) | 0.5 µg/mL
* COc1c(N2C[C@@H]3CCCN[C@@H]3C2)c(F)cc2c(=O)c(C(=O)O)cn(C3CC3)c12 | 0.5 µg/mL
* CO/N=C1\CN(c2nc3c(cc2F)c(=O)c(C(=O)O)cn3C2CC2)CC1CN (racemic) | 0.125 µg/mL
* C[C@H]1COc2c(N3CCN(C)CC3)c(F)cc3c(=O)c(C(=O)O)cn1c23 | 0.5 µg/mL

---

experiment: In vivo pharmacokinetic test: ocular tissue distribution after single ophthalmic administration; set-up: species or system pigmented rabbits; details: rabbit, topical, 30 µl of 0.3% solution per eye; cornea; single ophthalmic administration (30 µl) of 0.3% solution
measuredEndpoint: Tmax (min)

- CO/N=C1\CN(c2nc3c(cc2F)c(=O)c(C(=O)O)cn3C2CC2)CC1CN (racemic): 15

---

tested on: Ps. aeruginosa; experiment: E-test (Epsilometer-test), in vitro antibacterial effectiveness; assay type: cell-based; conditions: Pseudomonas aeruginosa; 8 ocular isolates of Ps. aeruginosa
measuredEndpoint: MIC90 (µg/mL)

* CC1COc2c(N3CCN(C)CC3)c(F)cc3c(=O)c(C(=O)O)cn1c23 (centres unmarked) [Ofloxacin] | 1
* COc1c(N2C[C@@H]3CCCN[C@@H]3C2)c(F)cc2c(=O)c(C(=O)O)cn(C3CC3)c12 [Moxifloxacin] | 1
* C[C@H]1COc2c(N3CCN(C)CC3)c(F)cc3c(=O)c(C(=O)O)cn1c23 [Levofloxacin] | 0.75
* CO/N=C1\CN(c2nc3c(cc2F)c(=O)c(C(=O)O)cn3C2CC2)CC1CN (racemic) [Gemifloxacin] | 0.25
* O=C(O)c1cn(C2CC2)c2cc(N3CCNCC3)c(F)cc2c1=O [Ciprofloxacin] | 0.25

---

assay: In vivo pharmacokinetic test: ocular tissue distribution after single ophthalmic administration; design: species or system pigmented rabbits; details: rabbit, topical, 30 µl of 0.3% solution per eye; conjunctiva; single administration of 0.3% aqueous solution, healthy eyes
measuredEndpoint: Cmax (ng/mL)

* CO/N=C1\CN(c2nc3c(cc2F)c(=O)c(C(=O)O)cn3C2CC2)CC1CN (racemic) | 980

---

test: In vivo pharmacokinetic test: ocular tissue distribution after single ophthalmic administration; design: species or system pigmented rabbits; details: rabbit, topical, 30 µl of 0.3% solution per eye; iris-ciliary body; single ophthalmic administration (30 µl) of 0.3% solution
measuredEndpoint: Tmax (h)

- CO/N=C1\CN(c2nc3c(cc2F)c(=O)c(C(=O)O)cn3C2CC2)CC1CN (racemic) [Gemifloxacin]: 2

---

system: St. coagulase negative; experiment: E-test (Epsilometer-test), in vitro antibacterial effectiveness; format: cell-based, Coagulase Negative Staphylococci (CNS); conditions: 16 ocular isolates
measuredEndpoint: MIC90

- C[C@H]1COc2c(N3CCN(C)CC3)c(F)cc3c(=O)c(C(=O)O)cn1c23: 0.25 µg/mL
- COc1c(N2C[C@@H]3CCCN[C@@H]3C2)c(F)cc2c(=O)c(C(=O)O)cn(C3CC3)c12: 0.094 µg/mL
- CC1COc2c(N3CCN(C)CC3)c(F)cc3c(=O)c(C(=O)O)cn1c23 (centres unmarked): 0.5 µg/mL
- CO/N=C1\CN(c2nc3c(cc2F)c(=O)c(C(=O)O)cn3C2CC2)CC1CN (racemic): 0.047 µg/mL
- O=C(O)c1cn(C2CC2)c2cc(N3CCNCC3)c(F)cc2c1=O: 0.25 µg/mL
